- target-or-test-system: T1, Scribble PDZ1 R762A (human, UniProt Q14160 719-829, R762A)
- T1 construct: Scribble, human, PDZ1, aa 719-829 in pETM-11, with R762A; source: E. coli BL21 Gold (DE3), purified (Ni2+ Sepharose)
- T1 sequence (Q14160 719-829 R762A): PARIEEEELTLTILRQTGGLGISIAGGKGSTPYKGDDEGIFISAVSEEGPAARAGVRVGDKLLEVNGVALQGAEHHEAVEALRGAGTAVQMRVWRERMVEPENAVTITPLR
- experimental-details: ITC; iTC200, 25°C, 20 mM HEPES pH 7.4; protein 50-100 µM in the cell, 0.64-3 mM peptide in the syringe; single-site fit, stoichiometry fixed to 0.8-1.1; triplicate
- condition-context: both partners purified
Square brackets hold non-standard residues; d marks the D form. Ends that are not written are not given here. pS = N[C@@H](COP(=O)(O)O)C(=O)O
Listed below: pKd values for each entry.
FYI, pKd means -log10 of a concentration in mol per litre.

{"binder": "MKRLTSTRL (C-terminal nine residues of RPS6KA2, human; source: synthetic peptide, bought: GeneCust) [RPS6KA2 peptide MKRLTSTRL (unphosphorylated)]", "pKd": 5.01}

Please give the measured pKd for this binder: RPHTNET[pS]L (C-terminal nine residues of MCC (colorectal mutant cancer protein), human; also called pMCC; source: synthetic peptide, bought: GeneCust) [MCC peptide RPHTNETpSL (p-1 phosphorylated)]
4.60

// query pKd value for entry MKRLT[pS]TRL (C-terminal nine residues of RPS6KA2, human; also called pRPS6KA2; phospho-RPS6KA2; source: synthetic peptide, bought: GeneCust) [RPS6KA2 peptide MKRLTpSTRL (p-3 phosphorylated)]
4.60

Field request: pKd | item: RPHTNETSL (C-terminal nine residues of MCC (colorectal mutant cancer protein), human; source: synthetic peptide, bought: GeneCust) [MCC peptide RPHTNETSL (unphosphorylated)]
4.95
